Data origin, for the record: the supplement of paper PMC11061612

Test system: Ramos-2G6-4C10 (Burkitt's Lymphoma)
Experiment: combination Emax (second highest fraction inhibited in the dose matrix, 72 h); higher = more inhibition; extreme values may be limits of the assay
Quantity: combination Emax

So what's the measured combination Emax for this one? C[C@@H](c1ccc2nccn2c1)n1nnc2ncc(-c3cnn(C)c3)nc21 [Savolitinib] + Cc1c2c(nn1C)CSCc1cc(n(C)n1)CSc1cc(c3ccccc3c1)OCCCc1c(C(=O)O)n(C)c3c-2c(Cl)ccc13 [AZD5991] (first compound max 1 µM, 7x7, partner max 1 µM)
0.975

So what's the measured combination Emax for this one? COc1cc2ncnc(Nc3ccc(F)c(Cl)c3)c2cc1OCCCN1CCOCC1 [Gefitinib] + CC(C)n1c(=O)n(C)c2cnc3cc(F)c(-c4ccc(OCCCN5CCCCC5)nc4)cc3c21 [AZD1390] (first compound max 10 µM, 7x7, partner max 0.3 µM)
0.148

So what's the measured combination Emax for this one? CC1(C)CCC(CN2CCN(c3ccc(C(=O)NS(=O)(=O)c4ccc(NCC5CCOCC5)c([N+](=O)[O-])c4)c(Oc4cnc5[nH]ccc5c4)c3)CC2)=C(c2ccc(Cl)cc2)C1 [Venetoclax] + CN(C)CCCOc1ccc(-c2ccc3ncc4c(c3c2)n(C2CCOCC2)c(=O)n4C)cn1 [AZD0156] (first compound max 1 µM, 7x7, partner max 1 µM)
0.627

So what's the measured combination Emax for this one? NC1(C(=O)N[C@@H](CCO)c2ccc(Cl)cc2)CCN(c2ncnc3[nH]ccc23)CC1 [Capivasertib] + C[C@@H]1COCCN1C2=NC(=NC(=C2)C3(CC3)[S@](=N)(=O)C)C4=C5C=CNC5=NC=C4 [AZD6738] (first compound max 10 µM, 7x7, partner max 10 µM)
0.922

So what's the measured combination Emax for this one? NC1(C(=O)N[C@@H](CCO)c2ccc(Cl)cc2)CCN(c2ncnc3[nH]ccc23)CC1 [Capivasertib] + COc1nnc2ccc(N3CCC(c4ccc(OCCN5CCN(C)C(=O)[C@H]5C)cc4)CC3)nn12 [AZD5153] (first compound max 10 µM, 7x7, partner max 1 µM)
0.997

So what's the measured combination Emax for this one? O=C(c1cc(Cc2n[nH]c(=O)c3ccccc23)ccc1F)N1CCN(C(=O)C2CC2)CC1 [Olaparib] + Cc1c2c(nn1C)CSCc1cc(n(C)n1)CSc1cc(c3ccccc3c1)OCCCc1c(C(=O)O)n(C)c3c-2c(Cl)ccc13 [AZD5991] (first compound max 10 µM, 7x7, partner max 1 µM)
0.978

So what's the measured combination Emax for this one? Cc1cc2ncnn2cc1Nc1ncc2c(n1)n(C1CCOCC1)c(=O)n2C [AZD7648] + COc1cc([C@@H]2c3cc4c(cc3[C@@H](O[C@@H]3O[C@@H]5CO[C@@H](C)O[C@H]5[C@H](O)[C@H]3O)[C@H]3COC(=O)[C@H]23)OCO4)cc(OC)c1O [Etoposide] (first compound max 10 µM, 7x7, partner max 10 µM)
0.963

So what's the measured combination Emax for this one? CN(C)CCCOc1ccc(-c2ccc3ncc4c(c3c2)n(C2CCOCC2)c(=O)n4C)cn1 [AZD0156] + O=C(c1cc(Cc2n[nH]c(=O)c3ccccc23)ccc1F)N1CCN(C(=O)C2CC2)CC1 [Olaparib] (first compound max 3 µM, partner max 3 µM)
0.745

So what's the measured combination Emax for this one? C=CCn1c(=O)c2cnc(Nc3ccc(N4CCN(C)CC4)cc3)nc2n1-c1cccc(C(C)(C)O)n1 [AZD1775] + C[C@@H]1COCCN1C2=NC(=NC(=C2)C3(CC3)[S@](=N)(=O)C)C4=C5C=CNC5=NC=C4 [AZD6738] (first compound max 1 µM, partner max 10 µM)
1

So what's the measured combination Emax for this one? NC1(C(=O)N[C@@H](CCO)c2ccc(Cl)cc2)CCN(c2ncnc3[nH]ccc23)CC1 [Capivasertib] + CC(C)n1c(=O)n(C)c2cnc3cc(F)c(-c4ccc(OCCCN5CCCCC5)nc4)cc3c21 [AZD1390] (first compound max 10 µM, 7x7, partner max 0.3 µM)
0.447

So what's the measured combination Emax for this one? Cc1c2c(nn1C)CSCc1cc(n(C)n1)CSc1cc(c3ccccc3c1)OCCCc1c(C(=O)O)n(C)c3c-2c(Cl)ccc13 [AZD5991] + C=CCn1c(=O)c2cnc(Nc3ccc(N4CCN(C)CC4)cc3)nc2n1-c1cccc(C(C)(C)O)n1 [AZD1775] (first compound max 1 µM, partner max 1 µM)
1

So what's the measured combination Emax for this one? COc1cccc(OCCCN)c1-c1cc(Nc2cnc(C#N)cn2)n[nH]1 [Prexasertib] + O=C(c1cc(Cc2n[nH]c(=O)c3ccccc23)ccc1F)N1CCN(C(=O)C2CC2)CC1 [Olaparib] (first compound max 1 µM, 7x7, partner max 10 µM)
1

So what's the measured combination Emax for this one? C[C@@H](Oc1cc(-c2cnn(C3CCNCC3)c2)cnc1N)c1c(Cl)ccc(F)c1Cl [Crizotinib] + Cn1cnc2c(F)c(Nc3ccc(Br)cc3Cl)c(C(=O)NOCCO)cc21 [Selumetinib] (first compound max 10 µM, 7x7, partner max 10 µM)
0.4

So what's the measured combination Emax for this one? COc1nnc2ccc(N3CCC(c4ccc(OCCN5CCN(C)C(=O)[C@H]5C)cc4)CC3)nn12 [AZD5153] + C=CCn1c(=O)c2cnc(Nc3ccc(N4CCN(C)CC4)cc3)nc2n1-c1cccc(C(C)(C)O)n1 [AZD1775] (first compound max 1 µM, partner max 1 µM)
1
